Reported Inhibition is given for each of the following compounds.
Tested on: Mus musculus
Method: In vivo anti-inflammatory activity determined by inhibition of oxazolone-induced allergic contact dermatitis (ACD) in mouse up on tropical application
Type: functional
Parameters: concentration or dose not given beside the values
Unit % implied. Number only.

Answered examples (2):
| Compound | Quantitative Result |
| --- | --- |
| CC(NCc1nc2ccccc2[nH]1)[C@H]1CC[C@]2(C)[C@@H]1CC[C@H]1[C@H]2CC[C@H]2C(C)(C)[C@@H](O)CC[C@]12C (stereo partly drawn) | 27 |
| CC(NCC(=O)OC(C)(C)C)[C@H]1CC[C@]2(C)[C@@H]1CC[C@H]1[C@H]2CC[C@H]2C(C)(C)[C@@H](O)CC[C@]12C (stereo in doubt; 4dB) | 21 |

In: Entry under review: CC(NCCc1ccccc1-n1ccnc1)[C@H]1CC[C@]2(C)[C@@H]1CC[C@H]1[C@H]2CC[C@H]2C(C)(C)[C@@H](O)CC[C@]12C (stereo partly drawn) . Reported Inhibition?
Out: 13

Each recorded value in this set is attributed to ChEMBL document CHEMBL1146773.
